protocolDetails: Total Fluorescence Confirmation Counterscreen for Inhibitors of the Interaction of Thyroid Hormone Receptor and Steroid Receptor Coregulator 2
settings: Texas Red total fluorescence, TRbeta/SRC2 FP artifact counterscreen; series mostly up to 92.2 µM
Inconclusive results are not listed. Calls of active or inactive are those of the source. The call rests on the fitted dose curve; in most records, active means well fitted curve in either direction with a large enough effect; inconclusive means small, poorly fitted or top-dose-only effect; inactive means flat fitted curve, though single readings scatter.
Return exactly one item of 1 (yes) = active, 0 (no) = inactive

Test call, this molecule: CCSc1ncc(Cl)c(C(=O)Nc2nc3ccc(OC)cc3s2)n1
0 (no)

----------
protocolDetails: Total Fluorescence Confirmation Counterscreen for Inhibitors of the Interaction of Thyroid Hormone Receptor and Steroid Receptor Coregulator 2
settings: Texas Red total fluorescence, TRbeta/SRC2 FP artifact counterscreen; series mostly up to 92.2 µM
Results filed as inconclusive are left out. Active and inactive are the calls of the source. Calls follow the shape of the dose curve; as a rule, active = well fitted curve in either direction with a large enough effect; inconclusive = small, poorly fitted or top-dose-only effect; inactive = flat fitted curve, though single readings scatter.
Return exactly one item of active, inactive

// known answers, use as guide
molecule	className
Nc1cc(-c2ccncc2)c[nH]c1=O	inactive
C=CCSc1nnc2n(-c3ccccc3OC)c(=O)c3c4c(sc3n12)CCC4	inactive
COc1ccc(-c2nc(CS(=O)CC(=O)NCc3ccccn3)c(C)o2)cc1 (stereo not given)	active
O=C(NNc1cc(N2CCOCC2)nc(N2CCOCC2)n1)c1ccc(Cl)c(Cl)c1	active
CCOC(=O)c1cnc2nc(NCc3ccc(OC)c(OC)c3)[nH]n2c1=O	inactive

Test call, this molecule: CS(=O)(=O)c1ccc(C(=O)OCC(=O)NC(=O)C2CCCCC2)cc1[N+](=O)[O-]
inactive

Test call, this molecule: CC(=O)NC1N=C(C)N(c2ccccc2)C1=O (stereo not given)
inactive

Test call, this molecule: O=C1CNC(=S)N1c1nc(-c2ccccc2)cs1
active

Test call, this molecule: Cc1ccc(-c2nc(S(=O)(=O)c3ccc(F)cc3)c(SCC(=O)NCC3CCCO3)o2)cc1 (stereo not given)
inactive

----------
protocolDetails: Total Fluorescence Confirmation Counterscreen for Inhibitors of the Interaction of Thyroid Hormone Receptor and Steroid Receptor Coregulator 2
settings: Texas Red total fluorescence, TRbeta/SRC2 FP artifact counterscreen; series mostly up to 92.2 µM
Results filed as inconclusive are left out. Activity calls are given as the source filed them. Calls follow the shape of the dose curve; as a rule, active = well fitted curve in either direction with a large enough effect; inconclusive = small, poorly fitted or top-dose-only effect; inactive = flat fitted curve, though single readings scatter.
Return exactly one item of t (active), f (inactive)

Test call, this compound: CCc1ccc2c(c1)c1nc(C)sc1n2CC
f

Test call, this compound: Cc1cc(C)cc(OCC(=O)NCCc2nc3ccccc3[nH]2)c1
f

Test call, this compound: CN(CCO)c1nc(N)c2c(N)nc3c(c2c1C#N)CC(=O)N3C1CCCC1
f

Test call, this compound: O=c1cc(C23CC4CC(CC(C4)C2)C3)[nH][nH]1
f

Test call, this compound: CCN(C(=O)C1CCCN(c2ncnc3onc(-c4ccc(F)cc4)c23)C1)c1ccccc1 (stereo unspecified)
f

Test call, this compound: CN1CCc2ccc3c4c2[C@]1(C)Cc1cccc(c1-4)OCO3
t

----------
protocolDetails: Total Fluorescence Confirmation Counterscreen for Inhibitors of the Interaction of Thyroid Hormone Receptor and Steroid Receptor Coregulator 2
settings: Texas Red total fluorescence, TRbeta/SRC2 FP artifact counterscreen; series mostly up to 92.2 µM
Method: NIH Molecular Libraries Probe Production Network [MLPCN] NIH Chemical Genomics Center [NCGC] […] To identify inhibitors that specifically prevent the interaction of TR with the steroid receptor coregulator 2 (SRC2), a fluorescence polarization assay was screened. […] Total fluorescence (555 nm excitation and 632 nm emission) was measured to identify potential fluorescent and light absorbing compounds. Such compounds may be artifacts that interfere with the fluorescence polarization assay. […]
Results filed as inconclusive are left out. Calls of active or inactive are those of the source. Calls follow the shape of the dose curve; as a rule, active = well fitted curve in either direction with a large enough effect; inconclusive = small, poorly fitted or top-dose-only effect; inactive = flat fitted curve, though single readings scatter.
Return exactly one item of true (active), false (inactive)

// known answers, use as guide
molecule	className
N/C(Cc1cccc2ccccc12)=N\OC(=O)c1cccs1	false
Cc1nc2ccccc2n2c(O)c(CC(=O)O)cc12	true
Nc1cccnc1Sc1cc(Cl)c(Cl)cc1Cl	false
Nc1c(C(=O)NCc2ccco2)c2nc3ccccc3nc2n1CCc1ccccc1	false
CCC(NC(=O)Nc1ccc(O)cc1)(C(F)(F)F)C(F)(F)F	false

Test call, this molecule: CCC(CNc1cc(OC)cc2cccnc12)NC1CCCCC1 (stereo not drawn)
false

Test call, this molecule: Cc1ccc(OC(=S)Nc2ccc(O)cc2)cc1
false

Test call, this molecule: Nc1cc(N)c(OCC(F)(F)F)cc1OCC(F)(F)F
false

Test call, this molecule: COc1ccc2ccc3c(c2c1)N=CC1(O3)N(C)c2ccccc2C1(C)C (stereo not drawn)
false

Test call, this molecule: COc1ccc(C(=O)Oc2ccc(C(c3c(C)[nH][nH]c3=O)c3c(C)[nH][nH]c3=O)cc2OC)cc1
false

Test call, this molecule: COc1cc(/C=C(\C#N)C(=O)NCC2CCCO2)ccc1OCCC(C)C (stereo not drawn)
false

Test call, this molecule: COC(=O)/C(=C/Nc1ccc(O)cc1)[N+](=O)[O-]
false

Test call, this molecule: Cn1cc[nH]c1=S
false

Test call, this molecule: O=c1[nH]c(Nc2ccc(F)cc2)cc2ccccc12
false

----------
protocolDetails: Total Fluorescence Confirmation Counterscreen for Inhibitors of the Interaction of Thyroid Hormone Receptor and Steroid Receptor Coregulator 2
settings: Texas Red total fluorescence, TRbeta/SRC2 FP artifact counterscreen; series mostly up to 92.2 µM
Inconclusive results are not listed. Calls of active or inactive are those of the source. The call rests on the fitted dose curve; in most records, active means well fitted curve in either direction with a large enough effect; inconclusive means small, poorly fitted or top-dose-only effect; inactive means flat fitted curve, though single readings scatter.
Return exactly one item of True for active, False for inactive

// known answers, use as guide
molecule	className
CCCCOc1ccc(C(=O)CCN2CCOCC2)cc1	False
COc1ccc(C(=O)/C=C/Nc2ccc(S(=O)(=O)Nc3ncccn3)cc2)cc1	False
CC1=NN(Cc2ccccc2)C(=O)C1	False
Cc1ccc2c(CC(=O)Nc3c(C(=O)c4ccc(F)cc4)oc4ccccc34)coc2c1C	False
CCCCOc1ccc(C(=O)CCN2CCCCC2)cc1	False
CCOC(=O)C(NC(=O)Nc1ccc(O)cc1)(c1ccccc1)C(F)(F)F (centres undefined)	False
Cn1cc(/C=C2\SC(=S)N(NC(=O)c3ccccc3)C2=O)c2ccccc21	True
O=C1CCCC(O)=C1N=Nc1cccc(S(=O)(=O)N2CCOCC2)c1	False

Next item in the queue.
Test call, this molecule: CCC(C)NC(=O)COC(=O)c1csc2c1CCCC2 (centres undefined)
False

Origin of measurements: PubChem BioAssay AID1572
